Data origin, for the record: patent US20100210836A1

biological target: PTP-PEST (Homo sapiens, UniProt Q05209); test: Counter-screen phosphatase assay PTP-PEST; format: biochemical; details: read-out: PEST IC50
Sequence (Q05209 2-323, species assumed): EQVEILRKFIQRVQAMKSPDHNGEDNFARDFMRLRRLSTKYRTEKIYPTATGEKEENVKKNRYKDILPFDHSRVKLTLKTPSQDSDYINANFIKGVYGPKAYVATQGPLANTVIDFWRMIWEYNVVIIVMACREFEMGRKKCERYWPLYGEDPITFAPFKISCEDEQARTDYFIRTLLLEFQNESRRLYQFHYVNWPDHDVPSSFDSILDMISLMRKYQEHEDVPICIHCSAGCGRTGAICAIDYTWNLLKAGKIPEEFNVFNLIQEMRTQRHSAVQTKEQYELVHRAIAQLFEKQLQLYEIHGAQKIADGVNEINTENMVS
QUANTITY NAME: IC50 (µM)

MOLECULE	IC50, µM
Cc1cc(C)c2[nH]c(=O)c([C@H](c3nnnn3C(C)(C)C)N3CCCC4(CCCCC4)C3)cc2c1	30.8
Cc1ccc2cc(C(c3nnnn3C3CCCC3)N3CCCC4(CCCCC4)C3)c(=O)[nH]c2c1C (stereo not shown)	16.1

I = Cc1ccc2cc([C@H](c3nnnn3C3CCCC3)N3CCC[C@@H](C)C3)c(=O)[nH]c2c1
II = Cc1ccc2[nH]c(=O)c([C@@H](c3nnnn3Cc3ccccc3)N3CCCC4(CCCCC4)C3)cc2c1
## Input I'd appreciate it if you could identify which of I and II has the greater IC50. When you have decided, please share the label of that item.
## Output I
(I: 80.3 µM, II: 15.1 µM)
